We begin with pIC50 values for DNA-PK (Homo sapiens), as collected from the published literature.
FYI, pIC50 means -log10 of a concentration in mol per litre.

The value of pIC50 measured for the compound `CC(=O)N1CCN(c2nc(N3CCOCC3)cc3ncccc23)CC1` turned out to be 6.73

pIC50 measured on `Cc1cc2ncnn2cc1Nc1ncc2c(n1)n(N1CCOCC1)c(=O)n2C` = 8.70

// recorded pIC50 for `COc1ccnc(NCC2CCN(c3nc(N4CCOCC4)cc4ncccc34)CC2)n1` : 7.06

pIC50 in this record for `c1cnc(N2CCC(Oc3nc(N4CCOCC4)cc4ncccc34)CC2)nc1` : 6.69

The measured pIC50 associated with `Cc1cc2nccn2cc1Nc1ncc2c(n1)n(N1CC3CCC(C1)O3)c(=O)n2C` reads 9.22

The compound `c1cnc2cc(N3CCOCC3)nc(O[C@H]3C[C@@H](c4ncc[nH]4)C3)c2c1` showed pIC50 equal to 7.29

For `O=c1nc(N2CCOCC2)[nH]c2c1cnn2C1CCCCC1` the compound record lists pIC50 as 4.62

# compound CC(C)(C)OC(=O)N1CCC2CN(c3nc(N4CCOCC4)cc4ncccc34)CC21 (stereo not drawn) ; its pIC50 = 5.89

`NC(=O)[C@H]1CC[C@H](COc2nc(N3CCOCC3)cc3ncccc23)CC1` yielded pIC50 of 6.92

----------
Collected literature values of pIC50 measured for DNA-PK (Homo sapiens).
To interpret pIC50, take it as minus log10 of a concentration measured in moles per litre.

Query CN1CC(CNc2nc(N3CCOCC3)cc3ncccc23)COC1=O (stereo not drawn) on DNA-PK (Homo sapiens); pIC50 returned: 7.18

Record `NC(=O)[C@H]1CC[C@@H](Oc2nc(N3CCOCC3)cc3ncccc23)CC1` ; system DNA-PK (Homo sapiens); pIC50 = 8.05

Field pIC50 (system: DNA-PK (Homo sapiens)) for entry `O=C(Nc1ncccn1)C1CCN(c2nc(N3CCOCC3)cc3ncccc23)CC1` = 6.65

The reported DNA-PK (Homo sapiens) pIC50 of COc1ccc(C(O)c2cc(-c3cnnc4c(F)c(N5CCOCC5)ccc34)c(F)cc2Cl)nn1 (stereo not drawn) is 8.82

Reported pIC50 (DNA-PK (Homo sapiens)) for entry `Cc1nc2nccn2cc1Nc1ncc2c(n1)n(N1C3CCC1COC3)c(=O)n2C` is 7.17

The molecule `N#Cc1cnc(NCC2CCN(c3nc(N4CCOCC4)cc4ncccc34)CC2)nc1` on DNA-PK (Homo sapiens): pIC50 was 7.18

The reported pIC50 value, DNA-PK (Homo sapiens), for `COc1cnc2cc(N3CCOCC3)nc(O[C@H]3CC[C@@H](n4cc(F)cn4)CC3)c2c1` reads 8.10

Log: DNA-PK (Homo sapiens), molecule c1cnc(NCC2CCCN(c3nc(N4CCOCC4)cc4ncccc34)C2)nc1 (stereo not drawn) , pIC50 = 6.02

The reported DNA-PK (Homo sapiens) pIC50 of `c1cnc(NCCCCOc2nc(N3CCOCC3)cc3ncccc23)nc1` is 6.55

Result for `Fc1cnn([C@H]2CC[C@@H](Oc3nc(N4CCOCC4)cc4ncccc34)CC2)c1` , tested on DNA-PK (Homo sapiens), pIC50: 8.40

// returns pIC50 for `N#Cc1cnc(NCC2CCN(c3nc(N4CCOCC4)cc4ncccc34)CC2)nc1N` with DNA-PK (Homo sapiens); value = 7.35

Summary line: `Cc1ccnc(NCC2CCN(c3nc(N4CCOCC4)cc4ncccc34)CC2)c1` , DNA-PK (Homo sapiens), reported pIC50 = 6.81

Observed pIC50 on DNA-PK (Homo sapiens), entry `COc1nc(NCC2CCN(c3nc(N4CCOCC4)cc4ncccc34)CC2)ncc1Cl` , equals 6.61

Record `CC(=O)NCC1CCN(c2nc(N3CCOCC3)cc3ncccc23)CC1` ; system DNA-PK (Homo sapiens); pIC50 = 6.59

Per the reported DNA-PK (Homo sapiens) data, `OCCC1CCN(c2nc(N3CCOCC3)cc3ncccc23)CC1` has pIC50 of 6.97

Note to self: pIC50 of `O=S(=O)(NCC1CCN(c2nc(N3CCOCC3)cc3ncccc23)CC1)c1ccc(F)cc1` with DNA-PK (Homo sapiens) was 6.09
